procedure_text: MT-4 proliferation assay in 384-well format (Cell Titer Glo)
Assay type: cell-based, human
condition_set: human, MT-4 cells, Table 2, 50% decrease in luminescence signal, read-out: CC50 MT4 384
quantity_name: CC50 at 5 days (nM)

compound="Cc1noc(C)c1-c1cc(C(O)(c2ccc(F)cn2)c2ccc(F)cc2F)c2[nH]c(=O)[nH]c2c1 (stereo not drawn)" observed_result=42.1
compound="Cc1noc(C)c1-c1cc(C(O)(c2ccccn2)c2ccc(Cl)cn2)c2[nH]c(=O)[nH]c2c1 (stereo not drawn)" observed_result=27.1
compound="Cc1noc(C)c1-c1cc(C(O)(c2ccccc2)c2ccccn2)c2[nH]c(=O)[nH]c2c1 (stereo not drawn)" observed_result=17.5
compound=Cc1noc(C)c1-c1cc(C(O)(c2ccccn2)c2ccccn2)c2[nH]c(=O)[nH]c2c1F observed_result=41.4
compound="Cc1noc(C)c1-c1cc(C(O)(CCC(F)(F)F)c2ccccn2)c2[nH]c(=O)[nH]c2c1 (stereo not drawn)" observed_result=78.3
compound=Cc1noc(C)c1-c1cc(-c2c(C3CC3)n[nH]c2C2CC2)c2[nH]c(=O)[nH]c2c1 observed_result=9.1
compound="Cc1noc(C)c1-c1cc(C(O)(c2cnccn2)c2c(F)cc(F)cc2F)c2[nH]c(=O)[nH]c2c1 (stereo not drawn)" observed_result=24.8
compound="Cc1noc(C)c1-c1cc(C(O)(CC(C)(C)C)c2ccccn2)c2[nH]c(=O)[nH]c2c1 (stereo not drawn)" observed_result=20.4
compound=Cc1noc(C)c1-c1cc(-c2cccnc2C2CC2)c2[nH]c(=O)[nH]c2c1 observed_result=61
compound="Cc1noc(C)c1-c1cc(C(O)(c2ccc(F)cn2)c2cc(F)ccc2F)c2[nH]c(=O)[nH]c2c1 (stereo not drawn)" observed_result=47.3
compound=Cc1noc(C)c1-c1cc(C(O)(c2ccccn2)c2ccccn2)c2[nH]c(=O)[nH]c2c1 observed_result=25.5
compound="Cc1cccc(C(O)(c2ccccn2)c2cc(-c3c(C)noc3C)cc3[nH]c(=O)[nH]c23)n1 (stereo not drawn)" observed_result=56.5
compound="Cc1noc(C)c1-c1cc(C(O)(c2ccc(F)cn2)c2c(F)cc(F)cc2F)c2[nH]c(=O)[nH]c2c1 (stereo not drawn)" observed_result=36.1
compound=Cc1cccc(C(O)(c2cccc(C)n2)c2cc(-c3c(C)noc3C)cc3[nH]c(=O)[nH]c23)n1 observed_result=19.1
compound=Cc1noc(C)c1-c1cc(C(O)(c2ccc(Cl)cn2)c2ccc(Cl)cn2)c2[nH]c(=O)[nH]c2c1 observed_result=41
